pIC50: −log10 of the molar value.
Literature-derived pIC50 for IRAK4 (Homo sapiens (Human), UniProt Q9NWZ3) follows.

compound: Cc1cccc(-n2ncc3c(Cl)cc(-c4cccc(C(C)N)n4)cc32)n1 (stereo not shown)
pIC50: > 7.00
--
compound: C[C@@H](CF)Oc1cc2nc(C34COC(C)(C3)C4)cn2cc1C(=O)Nc1cccn(C2CC2)c1=O
pIC50: 9.70
--
compound: COc1cc(-c2cccc([C@@H](N)CCC(F)(F)F)n2)cc2c1cnn2-c1cccc(CO)n1
pIC50: > 7.00

Then this compound:
For IRAK4 (Homo sapiens (Human), UniProt Q9NWZ3), give the measured pIC50 of the entry `Cn1cc(-c2cccc(-c3ncc(-c4cnn(C)c4)c(N4CCC(N)CC4)n3)c2)cn1`
6.00 to 7.00
